// data source = the supplement of paper PMC10567573

B1: RSPH3 (parent)
chain: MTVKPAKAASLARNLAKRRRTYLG

Variants of: B1
Test: protein stability index of a GFP-peptide fusion (GPS, HEK-293T) (PSI 1-6); higher = more stable;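 also: lentivirally expressed fusions sorted by FACS into six bins by GFP to DsRed ratio, PSI derived from sequencing read proportions per bin multiplied by bin number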
Conditions: c terminus: a fixed tail appended
measurement.label: protein stability index
Enter the number alone.

# example entries with known answers
MTVKPAKAAHLARNLAKRRRTYLG [S10H] = 3.28
MTVKPHKAASLARNLAKRRRTYLG [A6H] = 3.38

Entry under test: ITVKPAKAASLARNLAKRRRTYLG [M1I] . Its protein stability index was 2.15

Entry under test: MTVKPAKAASLRRNLAKRRRTYLG [A12R] . Its protein stability index was 3.67

Entry under test: MTLKPAKAASLARNLAKRRRTYLG [V3L] . Its protein stability index was 2.75

Entry under test: MTVKPAKAASLARNLAKRRPTYLG [R20P] . Its protein stability index was 2.81

Entry under test: MTVKPAKYASLARNLAKRRRTYLG [A8Y] . Its protein stability index was 2.04

Entry under test: MTVKPAKAASLARNLAKRRRTYCG [L23C] . Its protein stability index was 3.28

Entry under test: MTVKPKKAASLARNLAKRRRTYLG [A6K] . Its protein stability index was 2.67

Entry under test: MVVKPAKAASLARNLAKRRRTYLG [T2V] . Its protein stability index was 2.5

Entry under test: MTVKPAKAASLARNLAKRRRIYLG [T21I] . Its protein stability index was 2.54

Entry under test: MTVKLAKAASLARNLAKRRRTYLG [P5L] . Its protein stability index was 3.36

Entry under test: MTAKPAKAASLARNLAKRRRTYLG [V3A] . Its protein stability index was 2.85

Entry under test: MTVKTAKAASLARNLAKRRRTYLG [P5T] . Its protein stability index was 3.29

Entry under test: MTVKPAKAMSLARNLAKRRRTYLG [A9M] . Its protein stability index was 2.2

Entry under test: MTVKPAKAASLARNLGKRRRTYLG [A16G] . Its protein stability index was 3.15

Entry under test: MTVKPAAAASLARNLAKRRRTYLG [K7A] . Its protein stability index was 3.46

Entry under test: MTVKPAKAASLARNLYKRRRTYLG [A16Y] . Its protein stability index was 2.53

Entry under test: MTVKPAKAASLARNLWKRRRTYLG [A16W] . Its protein stability index was 1.82

Entry under test: MTVKPAKAASLARNLPKRRRTYLG [A16P] . Its protein stability index was 3.42

Entry under test: MTVKPAKAASLARNNAKRRRTYLG [L15N] . Its protein stability index was 3.56

Entry under test: KTVKPAKAASLARNLAKRRRTYLG [M1K] . Its protein stability index was 2.33

Entry under test: MTVKPRKAASLARNLAKRRRTYLG [A6R] . Its protein stability index was 2.19

Entry under test: MTVKPAKACSLARNLAKRRRTYLG [A9C] . Its protein stability index was 2.73

Entry under test: MTVKPAKAASLARNLAKRRRTYLK [G24K] . Its protein stability index was 2.68

Entry under test: MTVKPWKAASLARNLAKRRRTYLG [A6W] . Its protein stability index was 1.91

Entry under test: MTVKPAKAASLARNLAKRRRTVLG [Y22V] . Its protein stability index was 3.99

Entry under test: MTVKPAKAASLMRNLAKRRRTYLG [A12M] . Its protein stability index was 2.22
